TEST_DETAILS: Apparent permeability of the compound from apical to basal side of human Caco2 cells at 10 uM after 60 mins
Type: ADME, cell-based
REPORTED_CONDITIONS: Caco-2
Reported Papp A→B at 1 h, 10 µM values are given for each entry in this list.

CHEM_SMILES: Fc1ccc(CNc2cccc3[nH]c(C(F)(F)F)nc23)cc1
Papp A→B at 1 h, 10 µM [nm/s]: 15

CHEM_SMILES: c1ccn2c(Sc3ncnc4sccc34)nnc2c1
Papp A→B at 1 h, 10 µM [nm/s]: 500

====

TEST_DETAILS: Kinetic solubility of the compound in phosphate buffered saline after 2 hrs at pH 7.4
Type: physicochemical
REPORTED_CONDITIONS: read-out: Kinetic_solubility
PARAMETER_MEASURED: solubility kinetic at 2 h (µM)

CHEM_SMILES: Fc1ccc(CNc2cccc3[nH]c(C(F)(F)F)nc23)cc1
INEQUALITY_OPERATOR: <
MEASURED_NUMBER: 5
//
CHEM_SMILES: c1ccn2c(Sc3ncnc4sccc34)nnc2c1
INEQUALITY_OPERATOR: =
MEASURED_NUMBER: 20

====

TEST_DETAILS: Metabolic stability in human hepatic microsomes assessed as % turnover at 1 uM after 40 mins by LC/MS/MS analysis
REPORTED_CONDITIONS: liver microsomes
PARAMETER_MEASURED: % turnover at 40 min, 1 µM

CHEM_SMILES: c1ccn2c(Sc3ncnc4sccc34)nnc2c1
RESULT: 50%
//
CHEM_SMILES: Fc1ccc(CNc2cccc3[nH]c(C(F)(F)F)nc23)cc1
RESULT: 19%

Values from ChEMBL document CHEMBL2086373
